# procedure.text: yeast display, Sf9 membrane polyspecificity reagent, FACS + sequencing; frameworks hold sequencing errors
measured.parameter: polyreactivity (PSR sort gate)

As a guide, the following entries are already answered.
QVQLVESGGGLVQAGGSLRLSCAASGRTFVGNGKGWYRLAPGKERELLASISFSGGAGTYYADSVKGRFTISRDNAKYTVYLQMNSLKPEDTAVYYCAKRYVTPTYRRYYWGPGTQVTVSS :: high polyreactivity
QVQLVESGGGLVQAGGSLRLSCAASGGTFPVYAMGWYRQAPGKERELVAAISYSGVTTYYADSVKGRFTISRDNAKNTVYLQMNSLKPEDTAVYYCNADWRRWYIFSYDYWGQGTQVTVSS :: low polyreactivity
QVQLVESWGGLVQAGGSLRLSCDASGSTFDGNDMGWSRPAPGKQRELVAAITIGGGSTYYADSVKGRFTISRDNAKNTVYLQMNSLKPEDTADYYCATEWVTGSEDYDYWGQGTQVTVSS :: low polyreactivity
QVQIVESGGGLVQEGGSLRISCAASGIIFRRYAMGWYRQAPGKERELVATITRSGSTNYAESVKGRFTISRDNAKNSVYLQMNSLKPEDTAVYYCNADDIRGGVGYDYWGQGTQVTVSS :: high polyreactivity
QVQLVESGGGLVQAGGSLRLSCAASGSTFSVYAMGWYRQAPGKERELVAAISTSGGSTYYADSVKGRFTISRDNAKNTVYLQMNSLKTEDTAVYYCNAEYSGYIYPYSYPIYYWYDYWGQGTQVTVSS :: high polyreactivity

The sequence listed as `QVQLVESGGGLVQAGGSLRLSCAASGRTFNGYVMGWYSQAPGKEREFVAVINWSGGNTYYADSVKGRFTISRDNAKNTVYLQMNSLKPEDTAVYYCAARRVRSYAYDYWGQGTQVTVSS` has a reported polyreactivity (PSR sort gate) of high polyreactivity

The sequence listed as `QVQLVESGGGLVQAGGSLSLSCAATGRIFGPYAMGWYRQAPGKERELVATINSGGSTHYADSVKGRFTISRDNAKNTVYLQMNSLKPEDTAVYYCAATSAYGRYRYYYWGQGTQVTVSS` has a reported polyreactivity (PSR sort gate) of high polyreactivity

The sequence listed as `QVQLVESGGGLVQAGGSLRLSCTASGIIFGTFAMGWYRQAPGKERELVAAISSSGVSTYYADSVKGRFTISRDNAKNTVYLQMNSLKPEDTAVYYCAAPLHYGYYYWGQGTQVTVSS` has a reported polyreactivity (PSR sort gate) of high polyreactivity

The sequence listed as `QVQLVESGGGLVQAGGSLRLSCAASGRTFRWYAMGWYIQAPGKERELVAAITSGGSTYYADSVKGRFTISRDNAKNTVYLQMNSLKPEDTAVYYCNAVSTSGAFDYWGQGTQVTVSS` has a reported polyreactivity (PSR sort gate) of high polyreactivity

The sequence listed as `QVQLVESGGGLVQAGGSLRLSCAASGSIFYAYAMGWYRQAPGKEREFVAVISYSGGSTYYADSVKGRFTISRDNAKNTVYLQMYSLKPEDTAVYYCAARYRRPYSYYYWGQGTQVTVSS` has a reported polyreactivity (PSR sort gate) of high polyreactivity

The sequence listed as `QVQLVESGGGLVQAGGSLRLSCAASGSTFYVYAIGWYRHAPGKERELVADITYSDGGTFYADSVKGRFTISRDNAKTTVYLQMNSLKPEDTAGYYCATSYLWNYRGDIFDYWGQGTQVTVSS` has a reported polyreactivity (PSR sort gate) of high polyreactivity
